system: T1, THD1 KKAA (UniProt P26039 1-405, KKAA (KK402/403))
T1 construct: the sheet prints only 'KKAA'; source: E. coli (DE3) Rosetta 2, purified (IMAC, SEC); not shown: His10-SUMO, N-terminal, cleaved
T1 sequence (P26039 other isoform, or with tags, fused parts or gaps KKAA (KK402/403) | KKAA (KK402/403)): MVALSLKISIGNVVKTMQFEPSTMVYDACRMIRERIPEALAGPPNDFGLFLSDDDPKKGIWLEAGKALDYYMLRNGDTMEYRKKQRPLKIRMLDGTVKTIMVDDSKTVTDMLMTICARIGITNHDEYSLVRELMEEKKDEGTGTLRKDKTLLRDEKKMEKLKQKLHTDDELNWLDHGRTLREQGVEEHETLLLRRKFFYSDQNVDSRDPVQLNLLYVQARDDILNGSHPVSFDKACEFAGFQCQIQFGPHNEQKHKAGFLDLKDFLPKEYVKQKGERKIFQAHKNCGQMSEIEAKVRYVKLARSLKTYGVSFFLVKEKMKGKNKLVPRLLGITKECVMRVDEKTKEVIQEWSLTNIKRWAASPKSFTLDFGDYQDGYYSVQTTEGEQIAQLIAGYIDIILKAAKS
run.description: MST; unlabelled protein titrated to 50-200 nM ATTO 488-labelled β-CT peptide, no third protein; 20 mM Tris pH 7.5, 200 mM NaCl, 1 mM TCEP, 0.05% Tween-20; Kd of individual titrations (in S0002 mean and sd, n = 2)
condition.description: both partners purified
No end group written: not given here.
value.kind: pKd
One number for each entry, as −log10 of the molar value.

pKd reading for {ATTO 488}-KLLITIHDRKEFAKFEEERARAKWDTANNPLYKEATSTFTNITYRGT (peptide, UniProt O54890 741-787, looked up, integrin β3 cytoplasmic tail (β3-CT); source: synthetic peptide (MPIB Core Facility)) [ATTO 488-labeled integrin β3 cytoplasmic tail (488–β3-CT)] : 4.21
